# Tested on: mice, death by ADP injection
# assay.overview: prevention of death of mice by ADP addition (in vivo), oral administration
# assay.context: oral; 100 mg/Kg; ADP i.v. after one hour
measured.metric: Score (mortality)

Some compounds with known Score (mortality) results, for comparison:
compound | measured.metric | measured.result
CC(=O)Oc1ccccc1C(=O)O [Aspirin, reference compound] | Score (mortality) | 8/10
O=C(c1ccccc1SSc1ccccc1C(=O)N1CCN(Cc2ccccc2)CC1)N1CCN(Cc2ccccc2)CC1 [Compound IV, 2,2'-dithiobis(N'-benzylbenzpiperazide)] | Score (mortality) | 3/10
COc1ccc(Cc2nccc3cc(OC)c(OC)cc23)cc1OC [papaverine, reference compound] | Score (mortality) | 6/10

For the next question, use this compound.
Assay mice, death by ADP injection, sample `O=C(NCCO)c1ccccc1SSc1ccccc1C(=O)NCCO` , Score (mortality) read: 2/10
